For each of the compounds below, state its growth.
Test system: DU-145 prostate
measurement.description: NCI-60 one-dose screen, 48 h (100 = growth as untreated, 0 = no growth, -100 = all killed)
condition.parameters: 10 µM unless noted
Description: Cells are grown in 96 well plates and exposed to the test compound for 48 hours. Compounds are tested at a single concentration, which is 10^-5 M for most compounds. The reported endpoint is percent growth (GI% or GIPRCNT), where numbers from 0 - 100% represent growth inhibition, and numbers from -100% - 0 represent cell death. For example, a value of 40 represents 60% growth inhibition. A value of 0 means no net growth occurred over the course of the experiment. […]
The panel holds about 83,000 compounds, 20% with a hit somewhere; the sample as a whole holds those more often.
Answers are plain numbers, in %.

// worked examples, growth included
O=C1OC2C(I)C3CC2C1C3c1ccccc1 (stereo not given); 107
COc1ccc(-c2cn3c(ccc4ccccc43)n2)cc1; 104

Quick batch: growth for everything below.
1. CCCCCCCCOC(=O)CC[C@@H](C)[C@H]1CC[C@H]2[C@@H]3[C@H](OC(=O)CCN)C[C@@H]4C[C@H](OC(=O)CCN)CC[C@]4(C)[C@H]3C[C@H](OC(=O)CCN)[C@]12C
2. COc1ccc(N(Cc2cc(OC)c(OC)c(OC)c2)C2OC(=O)c3ccccc32)cc1 (stereo not given)
3. NC1=CC(=O)C(=O)c2ccccc21
4. COc1cnc2c(c1)C(=O)c1c-2n(CCCN2CCCC2)c(=O)c2cc([N+](=O)[O-])ccc12
5. CC/C=C\C[C@H](F)C/C=C1/C(=O)C=C[C@@H]1C/C=C\CCCC(=O)O
6. Cn1c(=O)c2c(ncn2CC[N+](C)(C)C)n(C)c1=O
7. CCCCCC(=O)N(CCCC)CCCC

Out:
1. 74.4
2. 25.5
3. 102
4. 3.15
5. 66.3
6. 104
7. 120

In: Provide value of growth for this record tested with DU-145 prostate: Cn1cc(-c2ccc(-c3cn(C)c4ncccc34)[nH]2)c2cccnc21
Out: 94.2
